test system: MDA-MB-435
Possible outcomes: Y = active, N = inactive

[[record]]
molecule = "COc1ccc(NC(=O)N/N=C/c2c[nH]c3ccccc23)cc1"
label_value = "Y"

[[record]]
molecule = "CO[C@H]1CSS[C@@H]1Cn1nc(-c2ccc(Oc3ccccc3)cc2)c2c(N)ncnc21"
label_value = "N"

[[record]]
molecule = "CC1[C@H]2[C@H](C[C@H]3[C@@H]4CC=C5c6sc(Nc7ccccc7F)nc6CC[C@]5(C)[C@H]4CC[C@@]32C)O[C@]12CC[C@@H](C)CO2 (some centres undefined)"
label_value = "N"

[[record]]
molecule = "COc1ccccc1[C@H]1C(C(=O)c2ccc(Cl)cc2)C2(N[C@@H]1c1ccccc1)C(=O)Nc1ccccc12 (some centres undefined)"
label_value = "N"

